TESTED_TARGET: G810S mutant RET kinase (Homo sapiens, UniProt P07949, G810S);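 further: HTRF KinEASE-TK kinase assay with recombinant enzyme, 1 h at 22 °C, dual-wavelength ratiometric read-out, percent of control (DMSO-only = 100, pre-quenched reaction = 0)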
Sequence (P07949 29-1114 G810S): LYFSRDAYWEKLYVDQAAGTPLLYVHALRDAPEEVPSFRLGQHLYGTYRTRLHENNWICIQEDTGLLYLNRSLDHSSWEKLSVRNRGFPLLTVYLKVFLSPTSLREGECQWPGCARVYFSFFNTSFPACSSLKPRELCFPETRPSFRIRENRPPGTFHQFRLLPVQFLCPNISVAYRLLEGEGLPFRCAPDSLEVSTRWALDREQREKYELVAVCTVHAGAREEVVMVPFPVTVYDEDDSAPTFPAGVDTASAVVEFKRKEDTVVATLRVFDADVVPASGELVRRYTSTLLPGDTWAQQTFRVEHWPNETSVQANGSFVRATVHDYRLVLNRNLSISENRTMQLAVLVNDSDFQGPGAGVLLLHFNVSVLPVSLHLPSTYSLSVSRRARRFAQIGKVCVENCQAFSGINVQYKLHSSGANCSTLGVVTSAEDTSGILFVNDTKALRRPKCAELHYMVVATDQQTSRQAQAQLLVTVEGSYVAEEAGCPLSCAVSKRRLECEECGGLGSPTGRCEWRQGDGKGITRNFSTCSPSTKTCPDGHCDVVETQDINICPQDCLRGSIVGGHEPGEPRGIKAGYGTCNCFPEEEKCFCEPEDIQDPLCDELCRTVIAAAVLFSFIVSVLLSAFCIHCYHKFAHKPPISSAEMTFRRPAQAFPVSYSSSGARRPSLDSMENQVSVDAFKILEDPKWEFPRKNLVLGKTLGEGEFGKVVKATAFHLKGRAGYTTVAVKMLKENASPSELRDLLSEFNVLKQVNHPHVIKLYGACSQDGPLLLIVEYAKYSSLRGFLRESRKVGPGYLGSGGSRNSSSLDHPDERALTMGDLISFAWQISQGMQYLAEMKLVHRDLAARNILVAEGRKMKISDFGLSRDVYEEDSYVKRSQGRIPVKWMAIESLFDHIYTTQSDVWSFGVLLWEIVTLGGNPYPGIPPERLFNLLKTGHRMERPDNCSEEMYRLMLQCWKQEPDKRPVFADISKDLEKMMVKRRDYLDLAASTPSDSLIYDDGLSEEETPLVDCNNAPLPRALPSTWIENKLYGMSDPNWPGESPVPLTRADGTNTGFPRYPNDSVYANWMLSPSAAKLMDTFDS
MEASUREMENT_PROTOCOL: biochemical
Kindly apply the following: met if IC50 is less than 300 nM, not met in every other case.

compound="CC(C)n1c2c(c3c(N)ncnc31)-c1cc3ccc(C(=O)Nc4cnn(C)c4)cc3n1CCC2 [Example 93]" classification="not met"
compound="COc1ccc(-n2c3c(c4c(N)ncnc42)-c2noc(C4CC4)c2C(O)CC3)cn1 (stereo not drawn) [Example 114, 2,2,2-trifluoroacetate]" classification=met
compound="CC(=O)N1Cc2c(noc2C2CC2)-c2c(n(C(C)C)c3ncnc(N)c23)C1 [Example 36, 2,2,2-trifluoroacetate]" classification=met
compound="COC(=O)c1ccc(-n2c3c(c4c(N)ncnc42)-c2noc(C4CC4)c2C(O)CC3)cc1 (stereo not drawn) [Example 113, 2,2,2-trifluoroacetate]" classification=met
compound="CCC(=O)N1Cc2c(noc2C2CC2)-c2c(n(C(C)C)c3ncnc(N)c23)C1 [Example 37, 2,2,2-trifluoroacetate]" classification="not met"
compound="COC(=O)[C@H]1C[C@@H](n2c3c(c4c(N)ncnc42)-c2noc(C4CC4)c2C(O)CC3)C1 (stereo partly drawn) [Example 137]" classification=met
compound="CC(C)n1c2c(c3c(N)ncnc31)-c1noc(C3CC3)c1C(=O)N(CCc1ccccc1)C2 [Example 8]" classification=met
compound="CC(C)n1c2c(c3c(N)ncnc31)-c1noc(C3CC3)c1[C@@H](O)[C@H](C)C2 (relative stereo) [Example 62]" classification=met
compound="Nc1ncnc2c1c1c(n2C2CCCC2)CC[C@@H](O)c2c-1noc2C1CC1 (single isomer, unassigned) [Example 125]" classification=met
compound="CC(C)n1c2c(c3c(N)ncnc31)-c1noc(C3CC3)c1C(=O)N(CCc1cnn(C)c1)C2 [Example 16]" classification="not met"
compound="CC1Cc2c(c3c(N)ncnc3n2C(C)C)-c2noc(C3CC3)c2C1=O (stereo not drawn) [Example 60]" classification=met
compound="Cc1cc(NC(=O)c2ccc3cc4n(c3c2)CCCc2c-4c3c(N)ncnc3n2C(C)C)nn1C [Example 98]" classification="not met"

* * *

TESTED_TARGET: RET kinase V804M (Homo sapiens, UniProt P07949, V804M)
Sequence (P07949 29-1114 V804M): as the sequence (P07949 29-1114 G810S) above, with V776M, S782G counted along it
MEASUREMENT_PROTOCOL: RET Enzyme Assay (CisBio HTRF KinEASE-TK), V804M
Assay type: biochemical
APPLIED_CONDITIONS: read-out: RET V804M Enz FRET IC50
pIC50: −log10 of the molar value.
Measured pIC50 of individual entries
PARAMETER: pIC50

molecule=CCCN1Cc2c(c3c(N)ncnc3n2C(C)C)-c2noc(C3CC3)c2C1=O parameter=pIC50 readout_value=6.97
molecule="C[C@@H](n1c2c(c3c(N)ncnc31)-c1noc(C3CC3)c1[C@H](O)CC2)C(F)(F)F (single isomer, unassigned) [Example 147, 2,2,2-trifluoroacetate]" parameter=pIC50 readout_value=7.49
molecule="CC(=O)N1Cc2c(noc2C2CC2)-c2c(n(C(C)C)c3ncnc(N)c23)C1 [Example 36, 2,2,2-trifluoroacetate]" parameter=pIC50 readout_value=6.63
molecule=CC(C)n1c2c(c3c(N)ncnc31)-c1cc3ccc(C(=O)NC4CC4)cc3n1CCC2 parameter=pIC50 readout_value=5.24
molecule=CC(C)n1c2c(c3c(N)ncnc31)-c1noc(C3CC3)c1S(=O)(=O)N(C)C2 parameter=pIC50 readout_value=6.49
molecule=CO[C@@H]1CCc2c(c3c(N)ncnc3n2C2(C)CC2)-c2noc(C3CC3)c21 parameter=pIC50 readout_value=7.57
molecule="Nc1ncnc2c1c1c(n2[C@H]2C[C@H](CO)C2)CCC(O)c2c-1noc2C1CC1 (stereo partly shown)" parameter=pIC50 readout_value=6.82

Data origin, for the record: patent US11964988B2
